Assay: Quantitative High-Throughput drug screen in 47 multiple myeloma cell lines against the NCATS MIPE library collection: EJM_DSMZ cell viability assay (AID 1918926; note: nearly all actives have a fitted effect of over 30% in size)
Conditions: EJM myeloma cell viability, CellTiter-Glo ATP, 48 h; series mostly up to 45.8 µM
Records with an inconclusive call do not appear. Activity calls are given as the source filed them. Calls come from the whole dose curve; as a rule, active = well fitted cell-killing curve with a large enough effect; inconclusive = small, poorly fitted or top-dose-only effect, or effect the other way; inactive = no such curve, though single readings can be large or run the other way.
Outcomes: active, inactive

| COMPOUND | CLASSIFICATION |
| --- | --- |
| Cc1[nH]c2ccccc2c1CCNCc1ccc(C=CC(=O)NO)cc1 | active |
| O=C(O)C1(Cc2cccc(Nc3nccs3)n2)CCC(Oc2cccc(Cl)c2F)CC1 (stereo not given) | inactive |
| CCCCc1nc2cc(C=CC(=O)NO)ccc2n1CCN(CC)CC | active |
| C[C@@H]1COC(Nc2ccc3ncnc(Nc4ccc(OCc5nccs5)c(Cl)c4)c3c2)=N1 | active |
| CCCNC(=O)Nc1ccc(Oc2ncnc3cc(OC)c(OC)cc23)cc1Cl | inactive |
| Cn1cc(-c2[nH]c3cc(NC(=O)[C@H](N)C4CCCCC4)cc4c3c2C=NNC4=O)cn1 | active |
| C#Cc1cccc(Nc2ncnc3cc(OC)c(OCCCCCCC(=O)NO)cc23)c1 | active |
| Cc1cc(CN2CCN(c3c(Br)cnc4nc(-c5ccc(N6CCN(C)CC6)cc5)[nH]c34)CC2)no1 | active |
| CC(C)(C)c1cc(NC(=O)Nc2ccc(-c3cn4c(n3)sc3cc(OCCN5CCOCC5)ccc34)cc2)no1 | active |
| CCN(CC)CCNC(=O)c1ccc2nc(-c3ccccc3)c(-c3ccc(CN4CCC(n5c(=O)[nH]c6ccccc65)CC4)cc3)nc2c1 | active |
| O=C(Nc1nc2cccc(-c3ccc(CN4CCS(=O)(=O)CC4)cc3)n2n1)C1CC1 | active |
| COC(=O)c1ccc2c(C(=Nc3ccc(N(C)C(=O)CN4CCN(C)CC4)cc3)c3ccccc3)c(O)[nH]c2c1 | active |
| C[C@@H](Oc1cc(-c2cnn(C3CCNCC3)c2)cnc1N)c1c(Cl)ccc(F)c1Cl | active |
| C=CC(=O)Nc1cc2c(Nc3ccc(F)c(Cl)c3)ncnc2cc1OCCCN1CCOCC1 | active |
| COc1cc(-c2nn(C3CCC(N4CCN(C(C)=O)CC4)CC3)c3ncnc(N)c23)ccc1NC(=O)c1cc2ccccc2n1C (stereo not given) | active |

* * *

Test system: C33A
Assay: Primary qHTS to identify gynecologic anti-cancer compounds using libraries of approved drugs and bioactive compounds (AID 1345084); note: nearly all actives have a fitted effect of over 55% in size
Details: Gynecologic cancer cell panel viability, ATPlite luminescence, 48 h; series mostly up to 57.5 µM
Results filed as inconclusive are left out. Active and inactive are the calls of the source. Calls come from the whole dose curve; as a rule, active = well fitted cell-killing curve with a large enough effect; inconclusive = small, poorly fitted or top-dose-only effect, or effect the other way; inactive = flat fitted curve, though single readings scatter.
Outcomes: active, inactive

| MOLECULE | CLASSIFICATION |
| --- | --- |
| CNc1nccc(-c2cccnc2Oc2cc(C(=O)Nc3cccc(C(F)(F)F)c3)ccc2C)n1 | inactive |
| Nc1ccccc1NC(=O)c1ccc(CNc2nccc(-c3cccnc3)n2)cc1 | active |
| COC(=O)Nc1nc2ccc(C(=O)c3ccc(F)cc3)cc2[nH]1 | inactive |
| Cc1c(C)n(Cc2ccc(-c3ccccc3C(=O)O)cc2)c2ccc(C(=O)N[C@@H](C)c3ccc([N+](=O)[O-])cc3)cc12 | inactive |
| Cc1cn(-c2cc(NC(=O)c3ccc(C)c(Nc4nccc(-c5cccnc5)n4)c3)cc(C(F)(F)F)c2)cn1 | inactive |
| O=C(O)CCCc1c[nH]c2ccccc12 | inactive |
| O=C(c1ccc(Nc2nccc(-c3cc4ccccc4s3)n2)cc1)N1CCC(N2CCCC2)CC1 | inactive |
| CN(C)Cc1c(C(=O)NCCOc2ccc(C(=O)NO)cc2)oc2ccccc12 | active |
| CC(C)(O)CCc1ccc(OCc2cc(-c3cccc(OC(F)F)c3)c3ncccc3c2)cc1 | inactive |
| CC1COC2(CCN(c3nc(=O)c4cc(C(F)(F)F)cc([N+](=O)[O-])c4s3)CC2)O1 (stereo not given) | inactive |
| COc1c(OCCCN2CCOCC2)ccc2c3n(c(=NC(=O)c4cnc(N)nc4)nc12)CCN3 | active |
| COc1cc2c(Oc3ccc(-c4cnc(Nc5ccc(F)cc5)n(C)c4=O)cc3F)ccnc2cc1OCCCN1CCOCC1 | inactive |
| CC[C@@]1(O)C(=O)OCc2c1cc1n(c2=O)Cc2cc3cc(O)ccc3nc2-1 | active |
| NC(=O)c1c(OCc2c(F)cc(Br)cc2F)nsc1NC(=O)NCCCCN1CCCC1 | inactive |
| CN(C)c1nc(Cc2ccc(NC(=O)c3ccc4ccccc4c3)cc2)nc(Cl)c1CC(=O)O | inactive |

* * *

System: MCC-26
Test: qHTS assay to identify novel small-molecules to repurpose for Merkel cell carcinoma treatment (AID 1296009); note: nearly all actives have a fitted effect of over 60% in size
Conditions: MCC and control cell lines, CellTiter-Glo viability, 72 h; series mostly up to 46 µM
Results filed as inconclusive are left out. Calls of active or inactive are those of the source. Calls come from the whole dose curve; as a rule, active = well fitted inhibition curve with a large enough effect; inconclusive = small, poorly fitted or top-dose-only effect; inactive = flat fitted curve, though single readings scatter.
Outcomes: active, inactive

| COMPOUND | CLASSIFICATION |
| --- | --- |
| O=C(O)CCCc1c[nH]c2ccccc12 | inactive |
| CN1CCN(c2cc(C(=O)Nc3ccc4c(c3)-c3c(c(C(N)=O)nn3-c3ccc(F)cc3)CC4)c(Cl)cn2)CC1 | inactive |
| C#Cc1cccc(Nc2ncnc3cc(OC)c(OCCCCCCC(=O)NO)cc23)c1 | active |
| CC1(O)CC(c2nc(-c3ccc4ccc(-c5ccccc5)nc4c3)c3c(N)nccn23)C1 (centres undefined) | inactive |
| CNC(=O)c1c(F)cccc1Nc1nc(Nc2cc3c(cc2OC)CCN3C(=O)CN(C)C)nc2[nH]ccc12 | active |
| COC(=O)C[C@](O)(CCCC(C)(C)O)C(=O)O[C@@H]1C(OC)=C[C@]23CCCN2CCc2cc4c(cc2[C@H]13)OCO4 | inactive |
| CC(C)CC(=O)Nc1n[nH]c2c1CN(C(=O)C1CCN(C)CC1)C2(C)C | active |
| Cc1cccc(C=NNc2cc(N3CCOCC3)nc(OCCc3ccccn3)n2)c1 | inactive |
| Nc1ccc(S(=O)(=O)Nc2ncccn2)cc1 | inactive |

* * *

Assay: qHTS profiling of the MIPE4 collection as inhibitors of Plasmodium falciparum (DD2) proliferation (AID 743345)
Conditions: P. falciparum Dd2 in erythrocytes, SYBR Green DNA, 72 h; at 28.5 µM (top of the series) unless noted
parasite growth remaining, % of DMSO control (lower = more inhibition) listing for selected compounds.
OBSERVED PROPERTY: parasite growth remaining, % of DMSO control (lower = more inhibition) (%)

| COMPOUND | NUMERIC VALUE |
| --- | --- |
| O=C1CCC[C@@H]2[C@H]3CCC[N+]4([O-])CCC[C@@H](CN12)[C@@H]34 (stereo partly specified) | 33.8 |
| CC(O)C1C(=O)N2C(C(=O)O)=C(SC3CNC(C(=O)N(C)C)C3)C(C)C12 (stereo unspecified) | 93.4 |
| CC[C@H]1CN2CCc3cc(OC)c(OC)cc3[C@H]2C[C@@H]1C[C@@H]1NCCc2cc(OC)c(OC)cc21 | 6.45 |
| O=C(c1cncc(Br)c1)N1CCC(N2CCCC2)CC1 | 105 |
| Cc1coc2c1C(=O)C(=O)c1c-2ccc2c1CCCC2(C)C | 9.98 |
| CCn1nnc2c(N3CCOCC3)nc(-c3ccc(NC(=O)Nc4ccc(C(=O)N5CCN(C)CC5)cc4)cc3)nc21 | 6.26 |
| CNC(=O)c1nn(C)c2c1C(C)(C)Cc1cnc(Nc3ccc(N4CCN(C)CC4)cc3)nc1-2 | 11.1 |
| Nc1ccccc1NC(=O)c1ccc(CNC(=O)OCc2cccnc2)cc1 | 31.3 |
| O=C(CCCCCCC(=O)Nc1ccc([C@H]2O[C@@H](CSc3nc(-c4ccccc4)c(-c4ccccc4)o3)C[C@@H](c3ccc(CO)cc3)O2)cc1)NO | 6.85 |

* * *

Assay: Quantitative High-Throughput drug screen in 47 multiple myeloma cell lines against the NCATS MIPE library collection: L363_DSMZ cell viability assay (AID 1918984); note: nearly all actives have a fitted effect of over 40% in size
Conditions: L363 myeloma viability, CellTiter-Glo ATP luminescence, 48 h; series mostly up to 45.8 µM
Results filed as inconclusive are left out. Active and inactive are the calls of the source. Calls come from the whole dose curve; as a rule, active = well fitted cell-killing curve with a large enough effect; inconclusive = small, poorly fitted or top-dose-only effect, or effect the other way; inactive = no such curve, though single readings can be large or run the other way.
Outcomes: True = active, False = inactive

| LINE NOTATION | CLASSIFICATION |
| --- | --- |
| CC(C)(C)c1cc(NC(=O)Nc2ccc(-c3cn4c(n3)sc3cc(OCCN5CCOCC5)ccc34)cc2)no1 | False |
| O=C(O)CCCc1c[nH]c2ccccc12 | False |
| COc1cccc(-c2ccc(NC(=O)C3=C(C(=O)O)CCC3)c(F)c2)c1 | False |
| CC1(C)OC2=C(C(=O)c3ccccc3C2=O)[C@H](NCc2ccccc2)[C@H]1O | True |

* * *

Assay: qHTS of pediatric cancer cell lines to identify multiple opportunities for drug repurposing: Primary screen for RD cells (AID 1347104); note: nearly all actives have a fitted effect of over 55% in size; note: potency is the fitted concentration of half-maximal effect
Conditions: RD rhabdomyosarcoma viability, CellTiter-Glo luminescence, 48 h; series mostly up to 46 µM
Inconclusive results are not listed. Activity calls are given as the source filed them. The call rests on the fitted dose curve; in most records, active means well fitted cell-killing curve with a large enough effect; inconclusive means small, poorly fitted or top-dose-only effect; inactive means flat fitted curve, though single readings scatter.

| COMPOUND | Potency |
| --- | --- |
| CC[C@H]1CN2CCc3cc(OC)c(OC)cc3[C@H]2C[C@@H]1C[C@@H]1NCCc2cc(OC)c(OC)cc21 | 0.469 µM (active) |
| CC(C)C[C@H](NC(=O)CNC(=O)c1cc(Cl)ccc1Cl)B(O)O | 1.32 µM (active) |
| OCCCNc1cc(-c2ccnc(Nc3cccc(Cl)c3)n2)ccn1 | 0.235 µM (active) |
| NC1(Cc2ccc(Cl)cc2)CCN(c2ncnc3[nH]ccc23)CC1 | 11.8 µM (active) |
| CC(C)Nc1cc(C(F)(F)F)cc2nc(NC(=O)c3cccnc3)nn12 | inactive |
| COc1c(N2C[C@@H]3CCCN[C@H]3C2)c(F)cc2c(=O)c(C(=O)O)cn(C3CC3)c12 | inactive |
| Cc1cn2c(-c3cn[nH]c3)cnc2c(Nc2ccc(C(=O)N3CCNCC3)cc2F)n1 | 16.6 µM (active) |
| Nc1ccc(S(=O)(=O)Nc2ncccn2)cc1 | inactive |
| Nc1ccc(C(=O)c2cc3c(ccc4ccccc43)[nH]2)cc1 | 5.9 µM (active) |
| C=CC(=O)Nc1cccc(Oc2nc(Nc3ccc(N4CCN(C)CC4)cc3)ncc2Cl)c1 | 20.9 µM (active) |
| CNC(=O)CN1CCC(Oc2cc3c(Nc4cccc(Cl)c4F)ncnc3cc2OC)CC1 | 0.0026 µM (active) |
| CCC1=C[C@@H]2CN(C1)Cc1c([nH]c3ccccc13)[C@@](C(=O)OC)(c1cc3c(cc1OC)N(C)[C@@H]1[C@@](O)(C(=O)OC)[C@H](OC(C)=O)[C@]4(CC)C=CCN5CC[C@]31[C@@H]54)C2 | 0.0187 µM (active) |
| CC(=O)SC[C@@H](C)C(=O)N1CCC[C@H]1C(=O)N[C@@H](Cc1ccccc1)C(=O)O | inactive |
| O=c1[nH]c(=O)n(C2CCCO2)cc1F (stereo unspecified) | inactive |
| C=C1C(=CC=C2CCCC3(C)[C@@H]([C@H](C)C=CC=CC(O)(CC)CC)CC[C@@H]23)C[C@@H](O)C[C@@H]1O (stereo partly specified) | 26.4 µM (active) |
| O=C(C=Cc1cccc(S(=O)(=O)Nc2ccccc2)c1)NO | 9.59 µM (active) |

Data origin: PubChem BioAssay (NCATS)
